B1: Azoarcus group I ribozyme (parent)
chain: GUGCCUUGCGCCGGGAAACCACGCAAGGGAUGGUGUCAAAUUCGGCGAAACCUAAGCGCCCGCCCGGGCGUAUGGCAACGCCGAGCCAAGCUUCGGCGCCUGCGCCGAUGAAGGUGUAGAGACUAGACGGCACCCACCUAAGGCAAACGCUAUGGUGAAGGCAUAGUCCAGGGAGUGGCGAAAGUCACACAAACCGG

# Variants of: B1
# protocol.summary: reverse-splicing fitness (ratio to wild type); higher = more active; in vitro selection; Mg2+ level not given
reverse-splicing fitness values for the variants below.
recorded.endpoint: reverse-splicing fitness

| variant.string | recorded.endpoint | reported |
| --- | --- | --- |
| A111U A120G A145G C150U C169U U176G | reverse-splicing fitness | 0.00563 |
| C82G A120G A145C C150U C169G U176C | reverse-splicing fitness | 0.0128 |
| C82U A111G A120C A145C C150A C169G U176C | reverse-splicing fitness | 0.00993 |
| C82G A145C C150A C169U U176A | reverse-splicing fitness | 0.0123 |
| C82A A111C A145C C150U C169A | reverse-splicing fitness | 0.00801 |
| C82U A120C A145G C150U C169U U176A | reverse-splicing fitness | 0.0165 |
| A111U A120U A145C C150A C169G U176A | reverse-splicing fitness | 0.00297 |
| C82U A120G A145G C150A C169G U176G | reverse-splicing fitness | 0.00413 |
| C82A A111C A120U A145G C169A U176G | reverse-splicing fitness | 0.00219 |
| C82G A111G A120G A145U C169G U176G | reverse-splicing fitness | 0.0044 |
| C82U A120G A145U C150G C169G | reverse-splicing fitness | 0.00815 |
| A120C A145U C150A U176C | reverse-splicing fitness | 0.179 |
| A111U A120C A145U C169G U176A | reverse-splicing fitness | 0.00823 |
| C82A A120U A145U C169A U176C | reverse-splicing fitness | 0.00182 |
| C82U A111C A120C A145U C150G C169A | reverse-splicing fitness | 0.00863 |
| C82A A120C A145U C150G C169G U176G | reverse-splicing fitness | 0.00467 |
| C82A A111G A120U A145U C150U C169A | reverse-splicing fitness | 0.00329 |
| A111U A120U A145U C150G C169G U176A | reverse-splicing fitness | 0.00294 |
| A111C A120G A145G C150G U176A | reverse-splicing fitness | 0.00942 |
| C82A A111U A145C C150U C169U U176C | reverse-splicing fitness | 0.00945 |
| C82G A111U A145G C150A C169A U176G | reverse-splicing fitness | 0.00721 |
| C82U A120C C150U C169G U176A | reverse-splicing fitness | 0.0126 |
